B1: Azoarcus group I ribozyme (parent)
chain: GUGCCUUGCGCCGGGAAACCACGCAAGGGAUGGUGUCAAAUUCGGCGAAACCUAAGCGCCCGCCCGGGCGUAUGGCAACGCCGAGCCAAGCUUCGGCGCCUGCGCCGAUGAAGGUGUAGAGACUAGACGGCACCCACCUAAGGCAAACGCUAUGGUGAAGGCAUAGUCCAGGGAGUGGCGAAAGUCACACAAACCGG

- Variants of: B1
- measurement-description: reverse-splicing fitness (ratio to wild type); higher = more active; in vitro selection; Mg2+ level not given
Listed here are variants together with their documented reverse-splicing fitness.

mutant: C82A A111U A120C A145G C150A C169A U176G
reverse-splicing fitness: 0.0115
--
mutant: C82G A111U A120U C169G U176A
reverse-splicing fitness: 0.00374
--
mutant: C82U A111G A145C C150A C169U
reverse-splicing fitness: 0.00807
--
mutant: C82G C169A U176C
reverse-splicing fitness: 0.0165
--
mutant: C82G A111G A120G A145C C150U C169G
reverse-splicing fitness: 0.0111
--
mutant: C82U A111C A120G A145C C150A U176G
reverse-splicing fitness: 0.00348
--
mutant: C82A A111C A120C A145U
reverse-splicing fitness: 0.0241
--
mutant: C82U A120C A145U C150G C169A U176G
reverse-splicing fitness: 0.00423
--
mutant: C82U A111C A120U A145C C150G C169U U176G
reverse-splicing fitness: 0.00217
--
mutant: C82A A111U A120G A145G C150G C169U U176G
reverse-splicing fitness: 0.00707
--
mutant: C82G A111C A120U A145U C150G C169U
reverse-splicing fitness: 0.00326
--
mutant: C82A A120U C150A C169G U176G
reverse-splicing fitness: 0.00162
--
mutant: C82G A145C C150U C169A U176A
reverse-splicing fitness: 0.0111
--
mutant: A111C A120U A145U C150A C169G U176A
reverse-splicing fitness: 0.00295
--
mutant: C82G A111U A120G A145U C150U C169G
reverse-splicing fitness: 0.0123
--
mutant: C82G A145G C169G U176G
reverse-splicing fitness: 0.00454
--
mutant: C82U A111G A145C C150G C169U U176A
reverse-splicing fitness: 0.00744
--
mutant: C82G A120C C150A C169U U176C
reverse-splicing fitness: 0.0182
--
mutant: C82U A111C A120U C150U U176C
reverse-splicing fitness: 0.00907
--
mutant: C82U A111C A120U A145G C150G C169G U176C
reverse-splicing fitness: 0.00782
--
mutant: C82A A111G A120U A145U C169A U176C
reverse-splicing fitness: 0.00249
--
mutant: C82G A145G C150U
reverse-splicing fitness: 0.401

// provenance: the RNAGym collection of RNA variant scans (doi:10.1093/molbev/msab373)
